# MEASURED_ON: Translocator protein (Mus musculus) (UniProt P50637)
# Sequence (P50637 whole entry, looked up): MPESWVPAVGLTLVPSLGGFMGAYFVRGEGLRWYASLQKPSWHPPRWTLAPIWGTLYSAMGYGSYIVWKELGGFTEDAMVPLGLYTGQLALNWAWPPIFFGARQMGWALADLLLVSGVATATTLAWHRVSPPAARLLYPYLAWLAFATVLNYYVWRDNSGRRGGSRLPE
# ASSAY_METHOD_TEXT: Inhibition of TSPO in mouse HT22 cells assessed as reduction in amyloid beta (1 to 42) (unknown origin) induced mitochondrial permeability transition pore formation by measuring increase in green to red fluorescence ratio at 5 uM pretreated for 10 mins followed by amyloid beta (1 to 42) stimulation and measured at 1 hr interval for 3 hrs by JC-1 dye based fluorescence assay relative to control
# Format: cell-based
# Parameters: scale not given: the % may be the effect or the level left
Activity values, listed per item
ASSAY_READOUT: Activity (%)

In [3]: df
Out[3]:
                                   compound  observed_value
0  CCc1nnc(SCC(=O)N(CC)Cc2ccccc2)c2cc3sc(C)cc3n12              67
1  O=S(=O)(c1ccccc1Cl)N1CCCC1c1cccs1 (stereo not given)              67
2  CCOC(=O)C(C)N1C(=O)CN=C(c2cccc(C)c2)c2c1sc1c2CCCC1 (stereo not given)               0
3  CCOC(=O)C1=C(C)N/C(=C/c2ccccc2OCc2ccccc2)C1=O              22
4  C=CCN1C(=O)CN=C(c2ccc(C(C)(C)C)cc2)c2c1sc1c2CCCC1              14

###

viability at 24 h, 5 µM values, listed per item
# ASSAY_METHOD_TEXT: Cytotoxicity against mouse HT22 cells as cell viability at 5 uM after 24 hrs by MTT assay relative to control
# Assay type: cell-based, HT-22
# SETTINGS: read-out: Activity
ASSAY_READOUT: viability at 24 h, 5 µM (%)

In [3]: df
Out[3]:
                                        mol  quantity_unit  observed_value
0  CCc1nnc(SCC(=O)Nc2ccc(OC)c(OC)c2)c2cc3sc(C)cc3n12              %              91
1  CCc1nnc(SCC(=O)Nc2ccccc2)c2cc3sc(Cl)cc3n12              %              95
2   CN1C(=O)CN=C(c2ccc(Cl)cc2)c2cc(Cl)ccc21              %             100
3  CCc1nnc(SCC(=O)N(C)c2ccccc2)c2cc3sc(Cl)cc3n12              %              78
4  CCN(Cc1ccccc1)C(=O)CSc1nnc(C)n2c1cc1sc(C)cc12              %              97
5  Cc1cc2c(cc3c(SCC(=O)N(C)c4ccccc4)nnc(C)n32)s1              %              87
6  CCc1nnc(SCC(=O)N(C)c2ccccc2)c2cc3sc(C)cc3n12              %              91
7  COc1ccc(NC(=O)CSc2nnc(C)n3c2cc2sccc23)cc1OC              %              99
8  CCc1nnc(SCC(=O)Nc2ccc(OC)c(OC)c2)c2cc3sccc3n12              %              82
9  CCc1nn(CC(=O)N2CCN(c3ccccc3)CC2)c(=O)c2cc3sccc3n12              %              91
